Measured Correlation in clearance with OHM of individual entries
Assay Notes: Integrated population pharmacokinetic model
Assay type: in vivo, human
Experimental Conditions: interindividual variability in clearance, common eta
Report as a plain number; the unit % is understood.

Before answering, review these 2 worked examples.
CNC(C)C1CCC(N)C(OC2C(N)CC(N)C(OC3OCC(C)(O)C(NC)C3O)C2O)O1 (centres unmarked) [Gentamicin, gentamicin]
41.8
CN1CC[C@]23c4c5ccc(O[C@@H]6O[C@H](C(=O)O)[C@@H](O)[C@H](O)[C@H]6O)c4O[C@H]2[C@@H](O)C=C[C@H]3[C@H]1C5 [M3G, morphine‐3‐glucuronide]
32.2

# lookup: Correlation in clearance with OHM of CC1(C)S[C@@H]2[C@H](NC(=O)Cc3ccccc3)C(=O)N2[C@H]1C(=O)O [Benzylpenicillin, benzylpenicillin]
53.4

Note, next up: O=C(O)[C@H]1O[C@@H](OCc2ncc3n2-c2ccc(Cl)cc2C(c2ccccc2F)=NC3)[C@H](O)[C@@H](O)[C@@H]1O [HMG, hydroxymidazolam glucuronide]
57.0

Moving on to the next molecule: CN1CC[C@]23c4c5ccc(O)c4O[C@H]2[C@@H](O[C@@H]2O[C@H](C(=O)O)[C@@H](O)[C@H](O)[C@H]2O)C=C[C@H]3[C@H]1C5 [M6G, morphine‐6‐glucuronide]
29.6

---

In this section, each of the compounds is paired with its reported PNA on Cl.
Assay Notes: Integrated population pharmacokinetic model
Type: in vivo, human
Experimental Conditions: increase of clearance per hour of postnatal age, first 5 days of life
State the answer as a number, implicitly in %/h.

Answered examples (4):
OCc1ncc2n1-c1ccc(Cl)cc1C(c1ccccc1F)=NC2 [OHM, 1‐hydroxymidazolam]
0.540
CN1CC[C@]23c4c5ccc(O[C@@H]6O[C@H](C(=O)O)[C@@H](O)[C@H](O)[C@H]6O)c4O[C@H]2[C@@H](O)C=C[C@H]3[C@H]1C5 [M3G, morphine‐3‐glucuronide]
1.23
Cc1ncc2n1-c1ccc(Cl)cc1C(c1ccccc1F)=NC2 [Midazolam, midazolam]
0.540
O=C(O)[C@H]1O[C@@H](OCc2ncc3n2-c2ccc(Cl)cc2C(c2ccccc2F)=NC3)[C@H](O)[C@@H](O)[C@@H]1O [HMG, hydroxymidazolam glucuronide]
1.23

Then there is this compound:
Item under review: CNC(C)C1CCC(N)C(OC2C(N)CC(N)C(OC3OCC(C)(O)C(NC)C3O)C2O)O1 (centres unmarked) [Gentamicin, gentamicin] . Reported PNA on Cl?
1.23

---

Here the recorded Correlation in clearance with Midazolam is given for each entry.
Assay Notes: Integrated population pharmacokinetic model
Type: in vivo, human
Experimental Conditions: interindividual variability in clearance, common eta
Report only the number, with the unit % understood.

CN1CC[C@]23c4c5ccc(O)c4O[C@H]2[C@@H](O[C@@H]2O[C@H](C(=O)O)[C@@H](O)[C@H](O)[C@H]2O)C=C[C@H]3[C@H]1C5 [M6G, morphine‐6‐glucuronide]
29.3

# query: Correlation in clearance with Midazolam of entry OCc1ncc2n1-c1ccc(Cl)cc1C(c1ccccc1F)=NC2 [OHM, 1‐hydroxymidazolam]
57.0

Also, CNC(C)C1CCC(N)C(OC2C(N)CC(N)C(OC3OCC(C)(O)C(NC)C3O)C2O)O1 (stereo not drawn) please.
41.4

---

Assay Notes: Integrated population pharmacokinetic model
Format: in vivo, human
Experimental Conditions: interindividual variability in clearance, common eta
Parameter: Correlation in clearance with Midazolam. Scope: all listed entries.
Respond numerically; units are % and should not be typed.

CC1(C)S[C@@H]2[C@H](NC(=O)Cc3ccccc3)C(=O)N2[C@H]1C(=O)O
52.8
CN1CC[C@]23c4c5ccc(O[C@@H]6O[C@H](C(=O)O)[C@@H](O)[C@H](O)[C@H]6O)c4O[C@H]2[C@@H](O)C=C[C@H]3[C@H]1C5 [M3G, morphine‐3‐glucuronide]
31.9

Please look up its Correlation in clearance with Midazolam: O=C(O)[C@H]1O[C@@H](OCc2ncc3n2-c2ccc(Cl)cc2C(c2ccccc2F)=NC3)[C@H](O)[C@@H](O)[C@@H]1O [HMG, hydroxymidazolam glucuronide]
56.4
